- system: OsWOX13 (Oryza sativa, UniProt Q5QMM3 1-267)
- Sequence: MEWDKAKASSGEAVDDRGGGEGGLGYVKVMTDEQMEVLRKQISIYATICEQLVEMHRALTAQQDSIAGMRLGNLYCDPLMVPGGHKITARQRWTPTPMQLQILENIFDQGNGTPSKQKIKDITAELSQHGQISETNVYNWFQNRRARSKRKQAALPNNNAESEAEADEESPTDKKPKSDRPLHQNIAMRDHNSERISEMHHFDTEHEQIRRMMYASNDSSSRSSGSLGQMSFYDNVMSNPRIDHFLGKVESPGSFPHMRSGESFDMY
- method_summary: protein-binding microarray (RPBM); PBS, 2% BSA, 51.3 ng/ul salmon testes DNA, 50 uM zinc acetate, 200 nM TF, 25 C, 1 h; high values mean tight binding
- condition_label: protein: recombinant; tags: N-terminal polyhistidine and DsRed monomer fusion (pET32a); label: CyDye5-dUTP incorporated in the synthesized complementary strand; 3' TTTTT single-stranded linker to array surface; dsDNA, one strand shown
Whole data set: some 35,000 sequences, median “fluorescence intensity (a.u.)” near 10,000, cut for the highest 2% near 52,000. This is one part of a sample in which the highest values are shown more often than they occur.
Measured binding signal of individual entries

record_sequence	binding signal
AGATAATTCTTACTAGATGATTATTGTATATGCTGCTATCCGGAGTCACCTAGTGCAG	9000 fluorescence intensity (a.u.)
CGAATTAACTAGATCATATTACTCTTTCATGCAATAAACACGGAGTCACCTAGTGCAG	4320 fluorescence intensity (a.u.)
TAGGAGATTATATTTAAATTAACTTTAAAGAGAAATCTTGCGGAGTCACCTAGTGCAG	11600 fluorescence intensity (a.u.)
AACAATTTGATCAAGAGTTGACCGAGATAATCCCACTTGCCGGAGTCACCTAGTGCAG	4370 fluorescence intensity (a.u.)
CCAATTGGAATGCATTGTCTATTTGTTGTCTAGATCTCTCCGGAGTCACCTAGTGCAG	3760 fluorescence intensity (a.u.)

Numbers sourced from paper PMC7819943.
